Reported T/C values follow for various compounds
System: BDF1 mice, P388 leukemia ip, median survival T/C
Experiment: NCI In Vivo Anticancer Drug Screen. Data for tumor model P388 Leukemia (intraperitoneal) in B6D2F1 (BDF1) mice
Details: endpoint: median survival time; dose: 200.0 mg/kg/injection; schedule: Q01DX009 (ip); vehicle: saline with Tween-80; higher = longer survival
Inconclusive results and toxic doses are left out.

{"columns": ["compound", "T/C"],
 "data": [
  ["O=C(NC1CCCCC1)N(c1ccccc1)c1nnc(-c2cccc([N+](=O)[O-])c2)s1", "115 % of control"],
  ["COC(=O)C(C#N)=N/C(=C/C=C1/N(C)c2ccccc2C1(C)C)c1ccccc1", "97 % of control"],
  ["COc1cc(O)c2c(c1)C(=O)c1cc3c(c(O)c1C2=O)C(OC1OC(C)C(OC)C(O)C1OC)C(OC)C(C)(O)C3=O (stereo not drawn)", "116 % of control"],
  ["CCC(=O)/C=C/c1ccccc1", "118 % of control"],
  ["NC(=O)c1ccc(-c2c3ccccc3cc3c2ccc2ccccc23)cc1", "89 % of control"],
  ["NC(Cc1ccc([N+](=O)[O-])cc1)C(=O)O (stereo not drawn)", "110 % of control"],
  ["COc1ccc(/C=C/C(=O)c2ccccc2)cc1Br", "109 % of control"],
  ["O=C(Cn1ccc(O)cc1=O)c1ccco1", "95 % of control"]
]}

* * *

Tested on: BDF1 mice, P388 leukemia ip, median survival T/C
Assay: NCI In Vivo Anticancer Drug Screen. Data for tumor model P388 Leukemia (intraperitoneal) in B6D2F1 (BDF1) mice
Details: endpoint: median survival time; dose: 200.0 mg/kg/injection; schedule: Q04DX003 (ip); vehicle: saline; higher = longer survival
Inconclusive results and toxic doses are left out.
Measured T/C, listed per entry.
readoutName: T/C

{"columns": ["molecule", "result"],
 "data": [
  ["Cc1ncc2c[n+]([O-])ccn12", "90 % of control"],
  ["C#CC1(OCC(O)CCl)CCCCC1 (configuration not stated)", "120 % of control"],
  ["CC(O)COCc1ccccc1 (configuration not stated)", "87 % of control"],
  ["Nc1ccc2c(-c3cccc([N+](=O)[O-])c3)cc(=O)[nH]c2n1", "87 % of control"],
  ["O=C(Cn1ccc(O)cc1=O)N1CCC2(CC1)SSC1(CCN(C(=O)Cn3ccc(O)cc3=O)CC1)S2", "116 % of control"],
  ["ClCc1ccncc1", "100 % of control"],
  ["CCNC(C)(C)C(Cl)c1cccs1 (configuration not stated)", "86 % of control"],
  ["CN(C)/C=N/n1cnc2c(ncn2C2OC(CO)C(O)C2O)c1=O (configuration not stated)", "111 % of control"],
  ["CC(O)C(C)(C)CO (configuration not stated)", "100 % of control"],
  ["CN(C)[C@@H]1C(=O)C(C(=O)NCN(CCCl)CCCl)=C(O)[C@@]2(O)C(=O)C3=C(O)c4c(O)cccc4[C@@](C)(O)[C@H]3C[C@@H]12", "91 % of control"],
  ["COc1cc2ccc3cc[n+](C)cc3c2cc1OC", "90 % of control"],
  ["CN(CCO)/N=N/c1nc[nH]c1C(N)=O", "100 % of control"]
]}

* * *

System: BDF1 mice, P388 leukemia ip, median survival T/C
Assay: NCI In Vivo Anticancer Drug Screen. Data for tumor model P388 Leukemia (intraperitoneal) in B6D2F1 (BDF1) mice
Settings: endpoint: median survival time; dose: 100.0 mg/kg/injection; schedule: Q01DX001 (ip); vehicle: Klucel (hydroxypropylcellulose) (HPC); higher = longer survival
Inconclusive results and toxic doses are left out.
Reported T/C values for a set of compounds
readoutName: T/C

{"columns": ["compound", "readoutName", "result"],
 "data": [
  ["Cc1[nH]c2cc(Br)ccc2c1/C=N/NC(N)=S", "T/C", "103 % of control"],
  ["O=C1OC(c2ccc([N+](=O)[O-])cc2)Sc2ccccc21 (configuration not stated)", "T/C", "100 % of control"],
  ["O=C(c1ccc([N+](=O)[O-])cc1)C(Br)C(Br)c1ccncc1 (configuration not stated)", "T/C", "110 % of control"],
  ["CCCCCCCSCCSCCSCCCCCCC", "T/C", "100 % of control"],
  ["O=C1NC(=O)C(c2ccccc2Cl)N1 (configuration not stated)", "T/C", "104 % of control"],
  ["CC1CCCC2(CN=C(Nc3ccccc3)O2)C1 (configuration not stated)", "T/C", "99 % of control"],
  ["COc1ccc(N2C(=O)CC(Sc3ccccc3N)C2=O)cc1 (configuration not stated)", "T/C", "104 % of control"]
]}

* * *

Tested on: BDF1 mice, P388 leukemia ip, median survival T/C
Assay: NCI In Vivo Anticancer Drug Screen. Data for tumor model P388 Leukemia (intraperitoneal) in B6D2F1 (BDF1) mice
Conditions: endpoint: median survival time; dose: 50.0 mg/kg/injection; schedule: Q01DX009 (ip); vehicle: Klucel (hydroxypropylcellulose) (HPC)
Toxic doses and inconclusive results are not listed. How the source made its calls: active means survival T/C of 150% or more; inactive means T/C below 125% in these data.
Possible outcomes: t (active), f (inactive)

{"columns": ["compound", "class"],
 "data": [
  ["O=C1NC(=O)C2(CCCCC2)N1", "f"],
  ["O=C(NNc1ccccc1)C(F)(F)F", "f"],
  ["CC(Br)(C(Br)c1ccccc1)[N+](=O)[O-] (centres undefined)", "f"],
  ["O=C(CC(=O)C(F)(F)C(F)(F)C(F)(F)F)c1csc2ccccc12", "f"],
  ["O=C(CSCSCC(=O)Nc1ccc(C2=NCCN2)cc1)Nc1ccc(C2=NCCN2)cc1", "t"],
  ["Cc1ccc(C)c(CCO)c1", "f"],
  ["CCOC(=O)c1cnc(=S)[nH]c1N", "f"],
  ["O=C(CCCN1CCC(O)(c2cccc(C(F)(F)F)c2)CC1)c1ccc(F)cc1", "f"],
  ["CN(C)P(=O)(N(C)C)N(C)C (tested in a mixture with another compound)", "f"],
  ["CC1C(=O)OC(C)(C)OC1=O", "f"],
  ["CC(=O)OCc1c(COC(C)=O)c(-c2ccc(Cl)cc2)n2c1CCC2", "f"],
  ["NC(=S)N=Nc1c(O)[nH]c2ccccc12", "f"],
  ["Oc1ccc2ccc3[nH]cnc3c2c1", "f"],
  ["NC(CSC(c1ccccc1)(c1ccccc1)c1ccc2ccccc2c1)C(=O)O (centres undefined)", "t"],
  ["OCc1cnc[nH]1", "f"],
  ["n1nc(Nc2nn[nH]n2)n[nH]1", "f"],
  ["COc1ccccc1/C=N\\NC(C)=O", "f"],
  ["CC(C)c1ccc(C(=O)C2CC2)cc1", "f"],
  ["Cc1cccc(-c2nc3cc(Cl)ccc3c(=O)o2)c1", "f"],
  ["CCOC(=O)C(C#N)C(C)CC (centres undefined)", "f"],
  ["CCCCCCCCOC(=O)c1[nH]cnc1/N=N\\N(C)C", "f"],
  ["COC1(c2ccccc2)CN(Cc2ccccc2)CCO1 (centres undefined)", "f"],
  ["Clc1nc(Cl)nc(-c2cccn2-c2ccccc2)n1", "f"],
  ["C1=CC=CN(c2ccccc2)C=C1", "f"],
  ["CCOC(C)C(/C=N/NC(N)=S)=NNC(N)=S (centres undefined)", "f"],
  ["O=C(Nc1ccc([N+](=O)[O-])cc1)OCC#CC#CCOC(=O)Nc1ccc([N+](=O)[O-])cc1", "f"],
  ["CCCC(=O)Nc1ccn(C2OC(COC(=O)CCC)C(OC(=O)CCC)C2OC(=O)CCC)c(=O)n1 (centres undefined)", "f"],
  ["CC(=O)NC1CCCN(O)C(=O)/C=C(/C)CCOC(=O)C(NC(C)=O)CCCN(O)C(=O)/C=C(/C)CCOC(=O)C(NC(C)=O)CCCN(O)C(=O)/C=C(/C)CCOC1=O.[Fe] (centres undefined)", "f"],
  ["COc1ccc2c(Cc3ccccc3)cncc2c1O", "f"]
]}

* * *

Tested on: BDF1 mice, P388 leukemia ip, median survival T/C
Assay: NCI In Vivo Anticancer Drug Screen. Data for tumor model P388 Leukemia (intraperitoneal) in B6D2F1 (BDF1) mice
Conditions: endpoint: median survival time; dose: 100.0 mg/kg/injection; schedule: Q04DX003 (ip); vehicle: saline sonified; higher = longer survival
Inconclusive results and toxic doses are left out.
readoutName: T/C

{"columns": ["smilesStr", "result"],
 "data": [
  ["O=C(Nc1ccccc1Cl)OCC#CCOC(=O)Nc1ccccc1Cl", "90 % of control"],
  ["O=C(O)c1ccccc1NC(=O)C(F)(F)F", "91 % of control"],
  ["Nc1nc(SCc2ccc([N+](=O)[O-])cc2)c2[nH]cnc2n1", "110 % of control"],
  ["O=[N+]([O-])c1cccc(CS(=O)(=O)c2ccccc2)c1-c1c(CS(=O)(=O)c2ccccc2)cccc1[N+](=O)[O-]", "95 % of control"],
  ["Cc1ccc(S(=O)(=O)OCCN(CCOS(=O)(=O)c2ccc(C)cc2)c2ccc(F)cc2)cc1", "100 % of control"],
  ["C/C(=N\\O)c1ccc2ccc3ccccc3c2c1", "104 % of control"],
  ["O=c1[nH]cnc2sc3c(c12)CCCC3", "95 % of control"],
  ["CCOC(=O)CCOc1ccccc1N(CCCl)CCCl", "168 % of control"],
  ["CCCCCCCCCCCCCCCC(=O)NCCO", "91 % of control"],
  ["c1ccc2nc(-c3cc4ccccc4s3)ccc2c1", "104 % of control"]
]}
